test system: human dermal microvascular endothelial cells (HDMEC); assay: HDMEC cytotoxicity assay; format: cell-based; conditions: concentration at 50% cytotoxicity
No end group written: not given here.
HDMEC (CC50) reference
Value and unit, in that order.

Below, 5 substances whose answers are already recorded.
KLLKLLKKLLKLLK-NH2 [Klk14, reference compound] | 3 µM
GLFDIVKKVVGLLK-NH2 [compound 8] | 28 µM
GLFDIVKKVVGALG-NH2 [Au2.2d2, reference compound] | 64 µM
KLLKLLKKLVGALG-NH2 [compound 15] | 25 µM
KLLKLLKKLLGALG-NH2 [compound 16] | 8 µM

What the record says about GLFDIVKKVVGALK-NH2 [compound 9] : HDMEC (CC50) is 103 µM

substance KLLKLVKKVVGALG-NH2 [compound 13] , HDMEC (CC50) observed: 533 µM

Record GLFKLLKKLLKLLK-NH2 [compound 2] . Reported HDMEC (CC50): 2 µM

The recorded HDMEC (CC50) for GLFDIVKKVVKLLK-NH2 [compound 7] is 236 µM

So, KLLKLLKKLLKALG-NH2 [compound 17] ? Its HDMEC (CC50) was 4 µM
